target: β-secretase(BACE) (Homo sapiens, UniProt P56817); construct: purchased Panvera; test: BACE FS1% Inhibition Assay; type: biochemical; conditions: 3 μM test compound; FS1 substrate
Sequence (P56817 46-501): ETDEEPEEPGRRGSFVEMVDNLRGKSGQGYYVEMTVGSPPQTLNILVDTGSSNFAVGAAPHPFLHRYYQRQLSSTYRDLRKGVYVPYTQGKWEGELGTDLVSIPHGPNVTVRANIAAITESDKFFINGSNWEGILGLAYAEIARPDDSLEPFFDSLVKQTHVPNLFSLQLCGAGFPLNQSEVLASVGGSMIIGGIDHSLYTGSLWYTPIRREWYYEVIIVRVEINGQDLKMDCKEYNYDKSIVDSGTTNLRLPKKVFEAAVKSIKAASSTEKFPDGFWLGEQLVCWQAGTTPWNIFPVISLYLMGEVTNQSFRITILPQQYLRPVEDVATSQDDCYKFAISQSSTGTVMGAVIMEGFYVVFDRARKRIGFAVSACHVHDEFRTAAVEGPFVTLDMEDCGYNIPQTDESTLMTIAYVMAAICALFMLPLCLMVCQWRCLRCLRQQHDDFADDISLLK
Kindly supply the reported % Inhibition (FS) 3 μM values for the records listed here.
Give bare numbers, in %.

Sample answers from the record:
> print(dat)
                                   compound  result.unit  assay.result
1  CC(C)C(=O)NCC(C1CCCCC1)N1Cc2cc(Oc3ccccc3)ccc2N=C1N (stereo not shown)            %           106
2  NC1=Nc2ccc(-c3cccc(C(F)(F)F)c3)cc2CN1CCNC(=O)CC1CCCC1            %            56
3  CCCC(=O)NCCN1Cc2cc(-c3ccccc3Cl)ccc2N=C1N            %            91

# return % Inhibition (FS) 3 μM for each item in the list
1. CC(=O)Nc1cccc(-c2ccc3c(c2)CN(Cc2cccc(C(=O)N(C)C4CCCCC4)c2)C(N)=N3)c1
2. CC1CCN(C(=O)CCCC(CCC(=O)N2CCC(C)CC2)N2Cc3cc(Oc4ccccc4)ccc3N=C2N)CC1 (stereo not shown)
3. NC1=Nc2ccc(Oc3ccccc3)cc2CN1CC(NC(=O)C1CCCCC1)C1CCCCC1 (stereo not shown)

[74, 68, 73]

----------
Kindly state inhibition at 1 µM for each of the entries shown.
target: β-secretase(BACE) (Homo sapiens); construct: purchased Panvera; assay: BACE FS1% Inhibition Assay; type: biochemical; settings: 1 μM test compound; FS1 substrate; read-out: % Inhibition (FS) 1 μM
Answers are plain numbers, in %.

> print(dat)
                                   molecule       quantity.kind  result.unit  assay.result
1  CN(C(=O)c1cccc(CN2Cc3cc(-c4csc5ccccc45)ccc3N=C2N)c1)C1CCCCC1 [Compound 265]  inhibition at 1 µM            %            55
2  NC1=Nc2ccc(-c3ccccc3O)cc2CN1CCNC(=O)C1CCCCC1 [Compound 538]  inhibition at 1 µM            %            53
3  CN(C(=O)c1cccc(CN2Cc3cc(-c4ccccc4OC(F)(F)F)ccc3N=C2N)c1)C1CCCCC1 [Compound 324]  inhibition at 1 µM            %            55
4  NC1=Nc2ccc(-c3ccccc3F)cc2CN1CCC(=O)NC1C2CC3CC(C2)CC1C3 (centres unmarked) [Compound 635]  inhibition at 1 µM            %           115

With those in mind, consider the next molecule.
Return reported inhibition at 1 µM; argument: CC(C)N(C(=O)c1cccc(CN2Cc3cc(Oc4ccccc4)ccc3N=C2N)c1)C1CCCCC1 [Compound 192] 92

----------
biological target: β-secretase(BACE) (Homo sapiens, UniProt P56817); construct: purchased Panvera; test: BACE Assay-2 (FS1 substrate, IC50 and Ki); format: biochemical; conditions: procedure of Example 159, FS1 substrate; read-out: Ki μM (159)
quantity_kind: Ki (µM)
Numbers only, in µM.

> print(dat)
                                   molecule  quantity.kind  assay.result
1  CC(C)N(C(=O)c1cccc(CN2Cc3cc(Oc4ccccc4)ccc3N=C2N)c1)C1CCCCC1             Ki          0.22
2  NC1=Nc2ccc(C(=O)c3ccccc3)cc2CN1CCNC(=O)C1CCCCC1             Ki          0.24
3  NC1=Nc2ccc(Oc3ccccc3)cc2CN1[C@@H](CCC(=O)N(Cc1nnn[nH]1)C1CCCCC1)C1CCCCC1             Ki         0.038
4  CN(C(=O)CCC(C1CCCCC1)N1Cc2cc(Oc3ccccc3)ccc2N=C1N)C1CCCC(C(=O)O)C1 (stereo not drawn)             Ki         0.107
5  CC(C)[C@H](CNC(=O)C1CCCCC1)N1Cc2cc(Oc3ccccc3)ccc2N=C1N             Ki         0.016

Record Ki per entry; entries follow.
1. CN(C(=O)CC[C@@H](C1CCC(=O)CC1)N1Cc2cc(Oc3ccccc3)ccc2N=C1N)C1CCCCC1
2. CN(C(=O)CC[C@@H]([C@H]1CC[C@@H](O)CC1)N1Cc2cc(Oc3ccccc3)ccc2N=C1N)C1CCCCC1
3. CN(CCN1Cc2cc(C(=O)c3ccccc3)ccc2N=C1N)C(=O)C1CCCCC1
4. COc1ccccc1C(=O)NCCN1Cc2cc(Oc3ccccc3)ccc2N=C1N
5. CN(C(=O)c1cccc(CN2Cc3cc(-c4ccccc4Cl)ccc3N=C2N)c1)C1CCCCC1

1. 0.01
2. 0.087
3. 1.1
4. 0.52
5. 0.21

----------
target: β-secretase(BACE) (Homo sapiens, UniProt P56817); construct: purchased Panvera; experiment: BACE % Inhibition Assay ((Aedens)-[…]-(Dabcyl K-amide) substrate); assay type: biochemical; conditions: 10 μM test compound; % error ±10%
quantity_kind: % Inhibition

Worked cases, % Inhibition given:
> print(dat)
                                   compound  assay.result
1  CN(C(=O)c1cccc(N2Cc3cc(Oc4ccccc4)ccc3N=C2N)c1)C1CCCCC1 [Compound 94]          <30%
2  CN(C(=O)c1ccc(CN2Cc3cc(Oc4ccccc4)ccc3N=C2N)cc1)C1CCCCC1 [Compound 97]           53%

Here is another compound to look at.
Please report the recorded % Inhibition for CN(C(=O)[C@@H]1CCCN1C(=O)CN1Cc2cc(Oc3ccccc3)ccc2N=C1N)C1CCCCC1 [Compound 88] . <30%

----------
molecular target: β-secretase(BACE) (Homo sapiens); construct: purchased Panvera; experiment: BACE FS1% Inhibition Assay; format: biochemical; details: 1 μM test compound; FS1 substrate; read-out: % Inhibition (FS) 1 μM
quantity_kind: inhibition at 1 µM

> print(dat)
                                   compound  assay.result
1  CN(C(=O)c1cccc(CN2Cc3cc(Oc4cccc(-c5ccccc5)c4)ccc3N=C2N)c1)C1CCCCC1 [Compound 231]           71%
2  CC(C)CN(CC(C)C)C(=O)c1cccc(CN2Cc3cc(Oc4ccccc4)ccc3N=C2N)c1 [Compound 211]         < 30%

Now take the following compound into account.
Recall the recorded inhibition at 1 µM for CC(C)(C)OC(=O)N1CCC(N2Cc3cc(Oc4ccccc4)ccc3N=C2N)CC1 [Compound 499] with β-secretase(BACE) (Homo sapiens) and state it. < 30%

----------
biological target: β-secretase(BACE) (Homo sapiens, UniProt P56817); construct: purchased Panvera; assay: BACE FS1% Inhibition Assay; assay type: biochemical; conditions: 3 μM test compound; FS1 substrate
quantity_kind: % Inhibition (FS)

> print(dat)
                                   molecule  assay.result
1  CN(C(=O)CCC(C1CCCCC1)N1Cc2cc(Oc3ccccc3)ccc2N=C1N)C1CCC(c2nn[nH]n2)CC1 (stereo not drawn)          <30%
2  NC1=Nc2ccc(-c3cnc4ccccc4c3)cc2CN1CCNC(=O)C1CCCC1          <30%

Please turn your attention to the following entry.
What does the data say about its % Inhibition (FS)? Entry: `NC1=Nc2ccc(-c3cnc4ccccc4c3)cc2CN1CCNC(=O)C12CC3CC(CC(C3)C1)C2` <30%

----------
target: β-secretase(BACE) (Homo sapiens, UniProt P56817); construct: purchased Panvera; experiment: BACE FS1% Inhibition Assay; type: biochemical; details: 3 μM test compound; FS1 substrate
quantity_kind: % Inhibition (FS) (%)
Answers are plain numbers, in %.

Before answering, review these 3 worked examples.
> print(dat)
                                   compound  assay.result
1  CC(=O)N1CCC(C(=O)NCCN2Cc3cc(-c4ccccc4Cl)ccc3N=C2N)CC1            51
2  COc1cccc(F)c1-c1ccc2c(c1)CN(CCNC(=O)C1CCC(C(F)(F)F)CC1)C(N)=N2 (centres unmarked)            85
3  COc1cccc(F)c1-c1ccc2c(c1)CN(CCNC(=O)C1CCOCC1)C(N)=N2            93

// lookup % Inhibition (FS) | system=β-secretase(BACE) (Homo sapiens, UniProt P56817) | key= CN(Cc1cccc(CC(=O)O)c1)C(=O)CCC(C1CCCCC1)N1Cc2cc(Oc3ccccc3)ccc2N=C1N (centres unmarked) 113

----------
Please provide measured inhibition at 0.3 µM for the entries that follow.
target: β-secretase(BACE) (Homo sapiens, UniProt P56817); construct: purchased Panvera; experiment: BACE FS1% Inhibition Assay; format: biochemical; settings: 0.3 μM test compound; FS1 substrate; read-out: % Inhibition (FS) 0.3 μM

> print(dat)
                                   compound         quantity.kind  assay.result
1  CN(C(=O)c1cccc(CN2Cc3cc(-c4ccccc4[N+](=O)[O-])ccc3N=C2N)c1)C1CCCCC1  inhibition at 0.3 µM         < 30%
2  CCC(c1cccc(C(=O)N(C2CCCCC2)C2CCCCC2)c1)N1Cc2cc(Oc3ccccc3)ccc2N=C1N (centres unmarked)  inhibition at 0.3 µM           38%
3  CC(C)N(C(=O)c1cccc(CN2Cc3cc(Oc4ccccc4)ccc3N=C2N)c1)C1CCCCC1  inhibition at 0.3 µM           38%

Quick one: give me inhibition at 0.3 µM for each item below, same order please.
1. Cc1ccccc1Oc1ccc2c(c1)CN(Cc1cccc(C(=O)N(C)C3CCCCC3)c1)C(N)=N2
2. CC(C)CN(CC(C)C)C(=O)c1cccc(CN2Cc3cc(Oc4ccccc4)ccc3N=C2N)c1

< 30%
< 30%
